tested on: MIA PaCa-2 cells; test: MIA PaCa-2 CTG Assay (CellTiter-Glo cell viability); assay type: cell-based, human; settings: Homo sapiens; Mia PaCa-2, 72 h; second value of the cell; read-out: G12D/C/V Cell Proliferation CTG (72 h) Mia PaCa-2
pIC50: −log10 of the molar value.
Form field: pIC50 (one value per entry).

{"compound": "O=C1OCCCc2c(Cl)cc3[nH]ncc3c2-c2ncc3c(nc(OCC45CCCN4CCC5)nc3c2F)N2CCOC[C@H](C2)O1", "pIC50": 7.80}
{"compound": "Cc1cc2[nH]ncc2c2c1CCCn1ccc(n1)[C@H]1CCCN(C1)c1nc(OC[C@@]34CCCN3C[C@H](F)C4)nc3c(F)c-2ncc13", "pIC50": 6.64}
{"compound": "Fc1c2ncc3c(nc(OC[C@@]45CCCN4C[C@H](F)C5)nc13)N1CCCO[C@@H](COCCCCc3c(Cl)cc4[nH]ncc4c3-2)C1", "pIC50": 7.00}
{"compound": "O=C1OCCc2c(Cl)cc3[nH]ncc3c2-c2ncc3c(nc(OC[C@@]45CCCN4C[C@H](F)C5)nc3c2F)N2CCC[C@]3(C2)C[C@H](C3)O1", "pIC50": 8.70}
{"compound": "O=C1OCCCc2c(Cl)cc3[nH]ncc3c2-c2cc3nc(OC[C@@]45CCCN4C[C@H](F)C5)nc(c3cn2)N2CCOC[C@H](C2)O1", "pIC50": 7.12}
{"compound": "O=C1OCCCc2c(Cl)cc3[nH]ncc3c2-c2ccc3c(nc(OC[C@@]45CCCN4C[C@H](F)C5)nc3c2F)N2CCOC[C@H](C2)O1", "pIC50": 7.62}
{"compound": "O=C1CC/C=C\\c2c(Cl)cc3[nH]ncc3c2-c2ncc3c(nc(OC[C@@]45CCCN4C[C@H](F)C5)nc3c2F)N2CCCC(C2)O1 (stereo in doubt) [Example 35, bis(2,2,2-trifluoroacetate)]", "pIC50": 7.05}
{"compound": "Cc1c2ncc3c(nc(OC[C@@]45CCCN4C[C@H](F)C5)nc13)N1CCC[C@](C)(C1)NC(=O)CCCc1c(F)ccc3cc(O)cc-2c13", "pIC50": 7.54}
{"compound": "Fc1c2ncc3c(nc(OC[C@@]45CCCN4C[C@H](F)C5)nc13)N1CCCC[C@H](C1)c1cnn(n1)CCCc1c(Cl)cc3[nH]ncc3c1-2", "pIC50": 7.28}
{"compound": "Cc1cc2[nH]ncc2c2c1CCCCOC[C@@H]1CCCN(C1)c1nc(OC[C@@]34CCCN3C[C@H](F)C4)nc3c(F)c-2ncc13 [Example 129, bis(2,2,2-trifluoroacetate)]", "pIC50": 7.05}
{"compound": "Cc1cc2[nH]ncc2c2c1[C@H]1C[C@H]1CCOC[C@H]1CN(CCO1)c1nc(OC[C@@]34CCCN3C[C@H](F)C4)nc3c(F)c-2ncc13 (single isomer, unassigned)", "pIC50": 6.89}

====

target: GDP-bound KRAS protein (aa 1-169), containing both G12D and C118A amino acid substitutions (Homo sapiens (Human), UniProt P01116, C118A/G12D); assay: KRAS G12D Coupled Nucleotide Exchange Assay; format: biochemical; details: read-out: KRAS G12D Coupled Exchange IC50
Sequence (P01116 other isoform, or with tags, fused parts or gaps G12D/C118A): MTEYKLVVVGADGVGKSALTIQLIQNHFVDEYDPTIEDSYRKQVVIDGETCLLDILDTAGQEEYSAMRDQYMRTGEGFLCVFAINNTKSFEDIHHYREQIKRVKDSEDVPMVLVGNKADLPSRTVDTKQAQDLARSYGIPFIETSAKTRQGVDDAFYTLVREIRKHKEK

{"molecule": "O=C1N[C@H]2C[C@@H](O)CN(C2)c2nc(OC[C@@]34CCCN3C[C@H](F)C4)nc3c(F)c(ncc23)-c2c(c(Cl)cc3[nH]ncc23)CCCO1", "IC50 / nM": 610}
{"molecule": "Fc1c2ncc3c(nc(OC[C@@]45CCCN4C[C@H](F)C5)nc13)N1CCOC(C1)c1cnn(n1)CCCc1c(Cl)cc3[nH]ncc3c1-2 (some centres unmarked)", "IC50 / nM": 9}
{"molecule": "Fc1c2ncc3c(nc(OC[C@@]45CCCN4C[C@H](F)C5)nc13)N1CCCC(C1)c1cnc(o1)CCCc1c(Cl)cc3[nH]ncc3c1-2 (some centres unmarked)", "IC50 / nM": 9}
{"molecule": "Cc1cc2[nH]ncc2c2c1CCCCC(=O)N[C@@H]1CCCN(C1)c1nc(OC[C@@]34CCCN3C[C@H](F)C4)nc3c(F)c-2ncc13.O=C(O)C(F)(F)F", "IC50 / nM": 13}
{"molecule": "Cc1cc2[nH]ncc2c2c1CCCCC(=O)O[C@]1(CF)CCCN(C1)c1nc(OC[C@@]34CCCN3C[C@H](F)C4)nc3c(F)c-2ncc13", "IC50 / nM": 4}
{"molecule": "O=C1OC/C=C\\c2c(Cl)cc3[nH]ncc3c2-c2ncc3c(nc(OC[C@@]45CCCN4C[C@H](F)C5)nc3c2F)N2CCC[C@H](C2)O1 (single isomer, unassigned)", "IC50 / nM": 3}
{"molecule": "Cc1cc2[nH]ncc2c2c1CCCCCC(=O)O[C@@H]1CCCN(C1)c1nc(OC[C@@]34CCCN3C[C@H](F)C4)nc3c(F)c-2ncc13", "IC50 / nM": 177}
{"molecule": "CN1C(=O)OCCCc2c(Cl)cc3[nH]ncc3c2-c2ncc3c(nc(OC[C@@]45CCCN4C[C@H](F)C5)nc3c2F)N2CCOC[C@@H]1C2", "IC50 / nM": 44}
{"molecule": "CN1CCC[C@H]1COc1nc2c3cnc(c(F)c3n1)-c1c(c(Cl)cc3[nH]ncc13)CCOC(=O)O[C@H]1C[C@]3(CCCN2C3)C1 (single isomer, unassigned)", "IC50 / nM": 3}
{"molecule": "CN1CCC[C@H]1COc1nc2c3cnc(c(F)c3n1)-c1cc(O)cc3ccc(F)c(c13)CCOC(=O)O[C@]1(C)COCCN2C1", "IC50 / nM": 3}
{"molecule": "Cc1nc2c3cnc(c(F)c3n1)-c1c(c(C)cc3[nH]ncc13)CCCOC(=O)O[C@@H]1COCCN2C1", "IC50 / nM": 431}
{"molecule": "C[C@@H](Oc1nc2c3cnc(c(F)c3n1)-c1c(c(Cl)cc3[nH]ncc13)CCCOC(=O)O[C@@H]1COCCN2C1)[C@@H]1CCCN1C", "IC50 / nM": 8}
{"molecule": "CN(C)CC1(COc2nc3c4cc(F)c(c(F)c4n2)-c2c(c(Cl)cc4[nH]ncc24)CCCOC(=O)O[C@@H]2COCCN3C2)CC1 [Example 306]", "IC50 / nM": 450}
{"molecule": "O[C@@H]1C[C@@H]2CN(C1)c1nc(OC[C@@]34CCCN3C[C@H](F)C4)nc3c(F)c(ncc13)-c1c(c(Cl)cc3[nH]ncc13)CCCn1ncc2n1 (single isomer, unassigned) [Example 299]", "IC50 / nM": 21}

====

The following molecules are shown together with reported pIC50 values.
molecular target: GDP-bound KRAS protein (aa 1-169), containing both G12D and C118A amino acid substitutions (Homo sapiens (Human), UniProt P01116, C118A/G12D); test: KRAS G12D Coupled Nucleotide Exchange Assay; format: biochemical; details: read-out: KRAS G12D Coupled Exchange IC50
pIC50: −log10 of the molar value.
recorded_metric: pIC50

{"molecule": "O=C1CCCCc2c(Cl)cc3[nH]ncc3c2-c2ncc3c(nc(OC[C@@]45CCCN4C[C@H](F)C5)nc3c2F)N2CCCC[C@H](C2)N1 [Example 65, bis(2,2,2-trifluoroacetate)]", "number": 8.70}
{"molecule": "Fc1c2ncc3c(nc(OC[C@@]45CCCN4C[C@H](F)C5)nc13)N1CCOC[C@H](C1)c1cnn(n1)CCCc1c(Cl)cc3[nH]ncc3c1-2", "number": 8.52}
{"molecule": "Fc1c2ncc3c(nc(OC[C@@]45CCCN4C[C@H](F)C5)nc13)N1CCC[C@@](F)(COCCCCc3c(Cl)cc4[nH]ncc4c3-2)C1", "number": 8.70}
{"molecule": "Cc1c2ncc3c(nc(OCC4CN(C)CCO4)nc13)N1CCC[C@](C)(C1)NC(=O)CCCc1c(F)ccc3cc(O)cc-2c13 (mixture of isomers)", "number": 7.74}
{"molecule": "C[C@@]12COCCN(C1)c1nc(OC[C@@]34CCCN3C[C@H](F)C4)nc3cc(ncc13)-c1c(c(Cl)cc3[nH]ncc13)CCCOC(=O)O2", "number": 8.70}
{"molecule": "CN1C(=O)OCCCc2c(Cl)cc3[nH]ncc3c2-c2ncc3c(nc(OC[C@@]45CCCN4C[C@H](F)C5)nc3c2F)N2C[C@H](O)C[C@H]1C2", "number": 6.42}

====

// values below are reported log10 of IC50
test system: MIA PaCa-2 cells; assay: MIA PaCa-2 CTG Assay (CellTiter-Glo cell viability); format: cell-based, human; details: Homo sapiens; Mia PaCa-2, 72 h; second value of the cell; read-out: G12D/C/V Cell Proliferation CTG (72 h) Mia PaCa-2
recorded_metric: log10 of IC50 (log10 of the value in nM)

{"compound": "C[C@@]12COCCN(C1)c1nc(OC[C@@]34CCCN3C[C@H](F)C4)nc3c(F)c(ncc13)-c1c(c(Cl)cc3[nH]ncc13)CCCOC(=O)O2", "number": 0.00}
{"compound": "C[C@@]12CCCCN(C1)c1nc(OC[C@@]34CCCN3C[C@H](F)C4)nc3c(F)c(ncc13)-c1c(c(Cl)cc3[nH]ncc13)CCCCC(=O)N2", "number": 1.95}
{"compound": "CO[C@@H]1C[C@@H](COc2nc3c4cnc(c(F)c4n2)-c2c(c(Cl)cc4[nH]ncc24)CCOC(=O)OC2CC4(CCCN3C4)C2)N(C)C1 (mixture of isomers)", "number": 1.79}
{"compound": "C[C@@]12COCCN(C1)c1nc(OC[C@@]34CCCN3C[C@H](F)C4)nc3c(F)c(ncc13)-c1cccc3ccc(F)c(c13)CCOC(=O)O2", "number": 2.58}
{"compound": "Cc1cc2[nH]ncc2c2c1CCCCC(=O)O[C@@H]1COCCN(C1)c1nc(OC[C@@]34CCCN3C[C@H](F)C4)nc3c(F)c-2ncc13", "number": 1.60}
{"compound": "[2H]C([2H])([2H])[C@@]12COCCN(C1)c1nc(OC[C@@]34CCCN3C[C@H](F)C4)nc3c(F)c(ncc13)-c1c(c(Cl)cc3[nH]ncc13)CCCOC(=O)O2", "number": 0.48}
